Target: HMPV F protein (NL/1/00, A1 sublineage), on virus (human metapneumovirus)
Assay: cell-based or functional assay
TEST_READOUT: HMPV-A1 IC50 (µg/mL)

binder="ADI-15614 (antibody, V domains shown, IgG) VH: EVQLLESGGGLVKPGGSLRLSCAASGFTISGYNMFWVRQPPGKGLEWVSSITAGSSYLNYADSVKGRFIVSRDNAKNSLYLQMNSLRAEDTAVYFCARAPLLPAMMDLWGQGTTVTVSS VL: QSVLTQPPSVSGAPGQRVTISCTGSSSNIGAGYDVHWYQQLPGTAPKLLIYTNNNRPSGVPDRFSGSKSGTSASLAITGLQAEDEADYYCQSYDRSLNGYVFGTGTKLTVL" unit_of_measurement=µg/mL numeric_readout=0.22
binder="ADI-15623 (antibody, V domains shown, IgG; also called Antibody Number 188) VH: EVQLLESGGGLVKPGGSLRLSCAASGFTIGGYNMFWVRQPPGKGLEWVSSITAGSSYLNYADSVKGRFIVSRDNAKNSLYLQMNSLRAEDTAVYFCARAPLLPAMMDLWGQGTTVTVSS VL: QSVVTQPPSVSGAPGQRVTISCTGSSSNIGAGYDVHWYQQLPGTAPKLLIYTNNNRPSGVPDRFSGSKSGTSASLAITGLQAEDEADYYCQSYDRSLNGYVFGTGTQLTVL" unit_of_measurement=µg/mL numeric_readout=0.37
binder="ADI-15665 (antibody, V domains shown) VH: QVQLVQSGPEVKRPGSSVKVSCKASGDTFNNYAISWVRQAPGQGLEWMGGIHPTTATPNYAQKFQGRVVISADKSTSTAYLDLSRLRSEDTAMYYCARVGVGRTWVYDIMGYLDYWGQGTLVTVSS VL: EIVLTQSPATLSLSPGERATLSCRASQSVSDYLAWYQQRPGQAPRLLIYDASTRATGIPDRFSGGGSGTDFTLTISSLEPEDFAVYYCQHRNNWPSLTFGGGTKVEIK" unit_of_measurement=µg/mL numeric_readout=13.5
binder="ADI-15657 (antibody, V domains shown) VH: QVQLVQSGTEVKKPGSSVKVSCKASGGTFSSYAISWVRQAPGQGLEWMGGIHPTSGPANYAQKFQDRVTITVDKSTSTVYMDLSSLRSEDTAVYYCARVGVGRTWIYDTMGYLDFWGQGTLVTVSS VL: EIVMTQSPATLSLSPGERATLSCRASQSVSDYLAWYQQKPGQAPRLLIYDASNRATGIPARFSGSGSGTDFTLTITSLEPEDFAVYYCQHRSDWPSLTFGGGTKLEIK" unit_of_measurement=µg/mL numeric_readout=11.9
